Data credit: patent US20260028391A1

systemTested: T1, RSV F B N208S (RSV B)
T1 construct: whole, on cells; also called mutant N208S
testProtocol: FACS, % binding to RSV F B variants
assayMetric: % binding (%)
Kindly answer with a numeric value in %, unit omitted.

Give a short answer stating reported % binding for MPK176-v4.3 (antibody, V domains shown) VH: QVQLVQSGAEVKKPGASVRVSCKASGYTLTAYGISWVRQAPGQGLEWMGWISPKHGSTHYAQRFQGRVTMTTDTSTSTAYMELRSLRPDDTAVYFCAREGVDIMAVPWYFDYWGQGTLVAVSS VL: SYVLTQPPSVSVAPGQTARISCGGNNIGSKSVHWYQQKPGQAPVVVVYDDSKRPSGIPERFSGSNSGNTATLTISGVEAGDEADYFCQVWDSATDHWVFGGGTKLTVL .
61.2
